methodNotes: Clearance study, liver microsomes (human)
studyConditions: pH 7.4
Here the recorded microsomal CLint at 1 μM is given for each entry.
Number in µL/min/mg, nothing else.

Answered cases to consult:
| molecule | valueUnit | microsomal CLint at 1 μM |
| --- | --- | --- |
| CCCCNC(=O)c1ccc2c(c1)N=C(c1ccc(Cl)s1)c1ccccc1S2 [drawing 1669] | µL/min/mg | 32 |
| CC(C)CCNC(=O)c1ccc2c(c1)N=C(c1cccc(Cl)c1)c1ccccc1S2 [drawing 1665] | µL/min/mg | 25 |
| CCN(CCNC(=O)c1ccc2c(c1)N=C(c1ccc(F)cc1)c1ccccc1S2)c1ccccc1 [drawing 1749] | µL/min/mg | 278 |
| CCCCNC(=O)c1ccc2c(c1)N=C(c1ccc(Cl)cc1)c1cc(Cl)ccc1S2 [drawing 1688] | µL/min/mg | 13 |
| Cc1csc(CNC(=O)c2ccc3c(c2)N=C(c2ccc(Cl)s2)c2ccccc2S3)c1 [drawing 1707] | µL/min/mg | 27 |

What the record says about O=C(NCc1ccco1)c1ccc2c(c1)N=C(c1ccc(Cl)cc1)c1ccccc1S2 [drawing 1803] : microsomal CLint at 1 μM is 29

What the record says about O=C(NC1CCCCC1)c1ccc2c(c1)N=C(c1ccc(F)cc1)c1ccccc1S2 [drawing 1683] : microsomal CLint at 1 μM is 31

This collection of values is drawn from patent US20080090805A1.
